The origin of these recorded values is patent US4387238A.

Biological target: papain (Carica papaya, UniProt P00784)
Construct: purchased Sigma Chem. Co
Sequence (P00784 134-345): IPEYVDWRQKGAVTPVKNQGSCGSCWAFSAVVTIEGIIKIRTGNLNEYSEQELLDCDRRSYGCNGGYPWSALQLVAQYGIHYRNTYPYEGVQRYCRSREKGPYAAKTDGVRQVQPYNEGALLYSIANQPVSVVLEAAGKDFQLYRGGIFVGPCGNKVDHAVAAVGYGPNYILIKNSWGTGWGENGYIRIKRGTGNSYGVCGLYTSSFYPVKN
Experiment: Papain inhibitory activity (milk casein proteolysis)
Type: biochemical
Design: unit not given beside the values
Conditions: amount of inhibitor for 50% inhibition; pH 6.8, 40° C., casein substrate
Attribute: ID50
endpoint name: ID50

compound: O=C(Nc1ccccc1)[C@H]1O[C@@H]1C(=O)OC1C=CCC1 (relative stereo)
reported value: 2.98 γ
//
compound: CCOC(=O)[C@@H]1O[C@H]1C(=O)NCc1ccco1 (relative stereo) [Compound No. 14, ethyl N-furfuryl-2,3-epoxysuccinamate]
reported value: 67.57 γ
//
compound: CCOC(=O)[C@H]1O[C@@H]1C(=O)N(CC)CC (relative stereo) [Compound No. 57, ethyl N,N-diethyl-2,3-epoxysuccinamate]
reported value: 46.30 γ
//
compound: O=C(Nc1ccccc1)[C@@H]1O[C@H]1C(=O)OCC1CCCCC1 (relative stereo)
reported value: 1.51 γ
//
compound: CCOC(=O)[C@@H]1O[C@H]1C(=O)N1CCCCC1C(=O)OCc1ccccc1 (relative stereo)
reported value: 120.10 γ
//
compound: CCOC(=O)[C@@H]1O[C@H]1C(=O)Nc1ccc(Br)cc1 (relative stereo)
reported value: 25.51 γ
//
compound: CC#CCOC(=O)[C@@H]1O[C@H]1C(=O)NCc1cccs1 (relative stereo) [Compound No. 42, 2'-Butynyl N-thenyl-2,3-epoxysuccinamate]
reported value: 14.15 γ
//
compound: O=C(Nc1ccc(I)cc1)[C@@H]1O[C@H]1C(=O)OC1CCCC1 (relative stereo)
reported value: 3.47 γ
//
compound: COC(=O)[C@H]1O[C@@H]1C(=O)NC(C)C (stereo in doubt) [Compound No. 60, Methyl N-isopropyl-2,3-epoxysuccinamate]
reported value: 32.35 γ
//
compound: CCOC(=O)[C@@H]1O[C@H]1C(=O)N(C)C1CCCCC1 (relative stereo)
reported value: 53.19 γ
//
compound: CC(C)CCNC(=O)[C@H]1O[C@@H]1C(=O)O (relative stereo) [Compound No. 97, potassium N-isoamyl-2,3-epoxysuccinamate]
reported value: 0.266 γ
//
compound: CC(C)COC(=O)[C@H]1O[C@@H]1C(=O)NCc1ccco1 (relative stereo) [Compound No. 39, Isobutyl N-furfuryl-2,3-epoxysuccinamate]
reported value: 3.08 γ
//
compound: CCOC(=O)[C@@H]1O[C@H]1C(=O)NCc1ccccc1 (relative stereo) [Compound No. 13, ethyl N-benzyl-2,3-epoxysuccinamate]
reported value: 13.30 γ
